B1: EDARADD (parent)
chain: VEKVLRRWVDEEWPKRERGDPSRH

Variants of: B1
Assay: protein stability index of a GFP-peptide fusion (GPS, HEK-293T) (PSI 1-6); higher = more stable;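 note: lentivirally expressed fusions sorted by FACS into six bins by GFP to DsRed ratio, PSI derived from sequencing read proportions per bin multiplied by bin number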
Conditions: c terminus: a fixed tail appended
Label Condition met when protein stability index >= 3; otherwise Condition not met.

Study these solved cases before continuing.
K15V ... Condition not met
E11R ... Condition not met
V4F ... Condition not met
E17V ... Condition not met
G19P ... Condition not met

Hello, I need to know if V9Y has measured protein stability index not below 3. Thanks!
Condition met

Hello, I need to know if E12R has measured protein stability index not below 3. Thanks!
Condition met

Hello, I need to know if E11W has measured protein stability index not below 3. Thanks!
Condition not met

Hello, I need to know if D10V has measured protein stability index not below 3. Thanks!
Condition not met

Hello, I need to know if K3W has measured protein stability index not below 3. Thanks!
Condition not met
